# Experiment Notes: Study MPKF: plasma pharmacokinetics of MDMA and MDA, single 120 mg MDMA·HCl, fasted/fed
# Type: in vivo, human
# Experimental Conditions: human, plasma, oral, 120 mg, fasted treatment group; 4 h; read-out: PK plasma concentration, Median
# Experimental: The MPKF was a Phase 1, open-label, randomized sequence, multi-dose, 2-period crossover food effect study in 16 healthy individuals. The MPKF study evaluated plasma concentrations of both MDMA and the active metabolite 3,4-methylenedioxyamphetamine (MDA). […] Sample Collection: Blood samples were collected at various time points up to 72 hours after dosing. The samples were analyzed using validated liquid chromatography-tandem mass spectrometry (LC-MS/MS) methods. […]
Assay Metric: concentration at 4 h (ng/mL)

>>> measured("CNC(C)Cc1ccc2c(c1)OCO2 (stereo not shown)")
218

---

# Experiment Notes: Study MPKF: plasma pharmacokinetics of MDMA and MDA, single 120 mg MDMA·HCl, fasted/fed
# Assay type: in vivo, human
# Experimental Conditions: human, plasma, oral, 120 mg, fasted treatment group; 6 h; read-out: PK plasma concentration, Mean
Assay Metric: concentration at 6 h (ng/mL)

>>> measured("CNC(C)Cc1ccc2c(c1)OCO2 (stereo not shown)")
193

---

# Experiment Notes: Study MPKF: plasma pharmacokinetics of MDMA and MDA, single 120 mg MDMA·HCl, fasted/fed
# Assay type: in vivo, human
# Experimental Conditions: human, plasma, oral, 120 mg, fasted treatment group; 12 h; read-out: PK plasma concentration, Geom. Mean
Assay Metric: concentration at 12 h (ng/mL)

>>> measured("CNC(C)Cc1ccc2c(c1)OCO2 (stereo not shown)")
111

---

# Experiment Notes: Study MPKF: plasma pharmacokinetics of MDMA and MDA, single 120 mg MDMA·HCl, fasted/fed
# Format: in vivo, human
# Experimental Conditions: human, plasma, oral, 120 mg, Fed; read-out: AUC0-72, Geometric LSM
Assay Metric: AUC(0-t) (ng·h/mL)

>>> measured("CC(N)Cc1ccc2c(c1)OCO2 (centres unmarked) [MDA, 3,4-methylenedioxyamphetamine]")
306
>>> measured("CNC(C)Cc1ccc2c(c1)OCO2 (centres unmarked) [MDMA, 3,4-methylenedioxymethamphetamine]")
3340

---

# Experiment Notes: Study MPKF: plasma pharmacokinetics of MDMA and MDA, single 120 mg MDMA·HCl, fasted/fed
# Type: in vivo, human
# Experimental Conditions: human, plasma, oral, 120 mg, fed treatment group; .5 h; read-out: PK plasma concentration, Median
Assay Metric: concentration at 0.5 h (ng/mL)

>>> measured("CNC(C)Cc1ccc2c(c1)OCO2 (stereo not shown) [MDMA, 3,4-methylenedioxymethamphetamine]")
4.12

---

# Experiment Notes: Study MPKF: plasma pharmacokinetics of MDMA and MDA, single 120 mg MDMA·HCl, fasted/fed
# Assay type: in vivo, human
# Experimental Conditions: human, plasma, oral, 120 mg, Fed; read-out: AUC0-inf, Geometric LSM
# Protocol: The MPKF was a Phase 1, open-label, randomized sequence, multi-dose, 2-period crossover food effect study in 16 healthy individuals. The MPKF study evaluated plasma concentrations of both MDMA and the active metabolite 3,4-methylenedioxyamphetamine (MDA). […] Sample Collection: Blood samples were collected at various time points up to 72 hours after dosing. The samples were analyzed using validated liquid chromatography-tandem mass spectrometry (LC-MS/MS) methods. […]
Assay Metric: AUC(0-inf) (ng·h/mL)

>>> measured("CC(N)Cc1ccc2c(c1)OCO2 (stereo not shown)")
328

Values from patent US20250134855A1
